- MEASURED_TARGET: T1, CD3 on primary human pan T cells (human, UniProt P07766 23-207)
- T1 construct: on cells it stands in the TCR/CD3 complex; also called Pan T-cells (CD3-positive); endogenous CD3
- T1 sequence (P07766 23-207 limits assumed): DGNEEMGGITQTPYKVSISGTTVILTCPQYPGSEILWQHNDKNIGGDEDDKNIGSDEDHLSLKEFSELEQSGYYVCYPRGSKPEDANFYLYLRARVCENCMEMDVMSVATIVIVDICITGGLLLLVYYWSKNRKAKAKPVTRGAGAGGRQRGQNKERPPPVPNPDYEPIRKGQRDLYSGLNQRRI
- ASSAY_PROCEDURE: flow cytometry, pan T-cells
Could you please report measured % Binding retained on T-cells, 55° C. for the items listed next?
One number for each entry, in fraction.

As a guide, the following entries are already answered.
CD3B2088 (scFv) scFv: QVQLVQSGAEVKKPGSSVKVSCKASGYTFTRSTMHWVRQAPGQGLEWMGYINPSSAYTNYAQKFQGRVTLTADKSTSTAYMELSSLRSEDTAVYYCASPQVHYDYNGFPYWGQGTLVTVSSGGSEGKSSGSGSESKSTGGSEIVLTQSPATLSASPGERVTLSCSASSSVSYMNWYQQKPGQSPRRWIYDSSKLASGVPARFSGSGSGRDYTLTISSLEPEDFAVYYCQQWSRNPPTFGGGTKVEIK ... 1.01
CD3B2039 (scFv) scFv: QVQLVQSGAEVKKPGSSVKVSCKASGYTFTRSTMHWVKQAPGQGLEWMGYINPSSAYTNYAQKFQGRVTLTADKSTSTAYMELSSLRSEDTAVYYCASPQVHYDYNGFPYWGQGTLVTVSSGGSEGKSSGSGSESKSTGGSEIVLTQSPATLSASPGERVTLSCSASSSVSYMNWYQQKPGQSPRRWIYDSSKLASGVPARFSGSGSGRDYTLTISSLEPEDFAVYYCQQWSRNPPTFGGGTKVEIK ... 1.3

# ---- query binder ----
Req: // % Binding retained on T-cells, 55° C. lookup, key: CD3B2078 (scFv) scFv: QVQLVQSGAEVKKPGSSVKVSCKASGYTFTRSTMHWVRQAPGQGLEWIGYINPSSAYTNYAQKFQGRVTLTADKSTSTAYMELSSLRSEDTAVYYCASPQVHYDYNGFPYWGQGTLVTVSSGGSEGKSSGSGSESKSTGGSEIVLTQSPATLSASPGERVTLSCSASSSVSYMNWYQQKPGTSPRRLIYDSSKLASGVPARFSGSGSGRDYTLTISSLEPEDFAVYYCQQWSRNPPTFGGGTKVEIK
Resp: 1.01

Reference source: patent US20250145711A1
